Molecular target: DGKα (Homo sapiens (Human), UniProt P23743); note: full length DGKα 7.5 nM
Sequence (P23743 whole entry): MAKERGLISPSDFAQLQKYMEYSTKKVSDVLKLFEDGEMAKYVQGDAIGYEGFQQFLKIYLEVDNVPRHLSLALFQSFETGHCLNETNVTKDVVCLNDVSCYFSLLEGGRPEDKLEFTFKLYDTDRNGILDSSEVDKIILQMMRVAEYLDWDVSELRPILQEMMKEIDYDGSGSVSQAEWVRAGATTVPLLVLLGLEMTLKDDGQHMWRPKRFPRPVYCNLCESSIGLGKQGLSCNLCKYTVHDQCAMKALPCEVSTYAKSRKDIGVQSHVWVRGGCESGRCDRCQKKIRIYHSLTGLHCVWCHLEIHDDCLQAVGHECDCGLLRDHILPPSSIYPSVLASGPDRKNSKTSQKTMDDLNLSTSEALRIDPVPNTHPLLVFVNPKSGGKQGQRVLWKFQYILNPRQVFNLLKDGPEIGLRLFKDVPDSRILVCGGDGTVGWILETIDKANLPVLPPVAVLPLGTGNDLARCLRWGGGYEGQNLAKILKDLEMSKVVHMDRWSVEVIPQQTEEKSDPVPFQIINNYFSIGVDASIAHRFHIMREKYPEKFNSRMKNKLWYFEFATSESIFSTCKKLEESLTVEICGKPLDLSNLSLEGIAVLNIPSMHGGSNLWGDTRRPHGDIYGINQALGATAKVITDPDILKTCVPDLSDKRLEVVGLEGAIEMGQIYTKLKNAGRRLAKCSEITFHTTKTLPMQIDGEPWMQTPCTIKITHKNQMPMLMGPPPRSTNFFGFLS
Rule: measured IC50 below 2000 nM gets 1; anything equal to or greater than 2000 nM gets 0.

Example results:
molecule	category
CC[C@H]1CN(C(C)c2ccc(C3CC3)nc2)[C@H](CC)CN1c1cc(=O)n(C)c2cn(CC#N)nc12 (single isomer, unassigned) [Compound A38a]	1
CC[C@H]1CN(C(C)c2ccc(OC(F)F)cc2)[C@H](CC)CN1c1cc(=O)n(C)c2cn(CC#N)nc12 (single isomer, unassigned) [Compound A19b]	1
CC[C@@H]1CN(c2cc(=O)n(C)c3cn(CC#N)nc23)[C@@H](C)CN1C(C)c1ccc2ncsc2n1 (single isomer, unassigned) [Compound A100b]	0
CC[C@H]1CN(C(C)c2ccn3nc(C)c(F)c3n2)[C@H](CC)CN1c1nc(=O)n(C)c2cn(CC#N)nc12 (single isomer, unassigned) [Compound A170b]	1
CC[C@H]1CN(C(C)c2ccn3nc(C)cc3c2)[C@H](CC)CN1c1cc(=O)n(C)c2cn(CC#N)nc12 (single isomer, unassigned) [Compound A162b]	0

For this molecule, is IC50 lower than 2000 nM? CC[C@H]1CN(C(C)c2ncc(C)cc2C)[C@H](CC)CN1c1cc(=O)n(C)c2cn(CC#N)nc12 (stereo partly drawn)
0

###

Molecular target: DGKζ (Homo sapiens (Human))
Sequence (Q13574 other isoform, or with tags, fused parts or gaps): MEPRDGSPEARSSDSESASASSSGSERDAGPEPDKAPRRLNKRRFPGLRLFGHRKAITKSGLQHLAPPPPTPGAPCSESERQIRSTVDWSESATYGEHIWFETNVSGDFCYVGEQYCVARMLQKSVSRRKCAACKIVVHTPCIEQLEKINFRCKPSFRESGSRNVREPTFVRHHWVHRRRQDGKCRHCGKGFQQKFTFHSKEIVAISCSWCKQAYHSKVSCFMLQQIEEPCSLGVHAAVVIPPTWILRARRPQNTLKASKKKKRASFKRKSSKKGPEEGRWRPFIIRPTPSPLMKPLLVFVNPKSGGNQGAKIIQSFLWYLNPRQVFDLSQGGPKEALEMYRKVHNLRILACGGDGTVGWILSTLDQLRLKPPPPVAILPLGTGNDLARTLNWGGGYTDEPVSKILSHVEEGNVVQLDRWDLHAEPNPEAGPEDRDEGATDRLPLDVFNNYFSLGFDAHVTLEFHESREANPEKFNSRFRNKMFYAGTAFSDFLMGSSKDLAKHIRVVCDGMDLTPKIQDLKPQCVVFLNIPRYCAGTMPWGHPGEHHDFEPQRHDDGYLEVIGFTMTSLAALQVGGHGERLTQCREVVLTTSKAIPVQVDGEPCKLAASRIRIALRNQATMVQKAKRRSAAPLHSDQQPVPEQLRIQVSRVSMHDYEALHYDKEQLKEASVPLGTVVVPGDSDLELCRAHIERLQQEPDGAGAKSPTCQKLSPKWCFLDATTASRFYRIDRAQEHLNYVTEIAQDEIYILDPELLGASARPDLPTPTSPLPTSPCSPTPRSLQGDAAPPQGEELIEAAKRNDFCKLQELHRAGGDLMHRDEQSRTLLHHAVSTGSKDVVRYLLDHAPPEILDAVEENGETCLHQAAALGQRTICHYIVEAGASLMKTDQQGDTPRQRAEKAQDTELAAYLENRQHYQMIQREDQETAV
Rule: measured IC50 below 0.5 µM gets t; anything equal to or greater than 0.5 µM gets f.

Example results:
molecule	category
CC[C@H]1CN(C(C)c2cc(F)c(CN(C)C)c(F)c2)[C@H](CC)CN1c1cc(=O)n(C)c2cn(CC#N)nc12 (single isomer, unassigned) [Compound A25a]	t
CC[C@H]1CN(C(C)c2ccn3nc(C)c(C)c3n2)[C@H](CC)CN1c1cc(=O)n(C)c2cn(CC#N)nc12 (single isomer, unassigned) [Compound A156b]	t
CC[C@H]1CN(C(C)c2ccc3ccnn3c2)[C@H](CC)CN1c1cc(=O)n(C)c2cn(CC#N)nc12 (single isomer, unassigned) [Compound A77a]	t
CC[C@H]1CN(C(C)c2ccc3nc(C)sc3n2)[C@H](CC)CN1c1nc(=O)n(C)c2cn(CC#N)nc12 (single isomer, unassigned) [Compound A129a]	f
CC[C@H]1CN(C(C)c2ccc3nc(C)cn3n2)[C@H](CC)CN1c1nc(=O)n(C)c2cn(CC#N)nc12 (single isomer, unassigned) [Compound A150b]	t

For this molecule, is IC50 lower than 0.5 µM? CC[C@H]1CN(C(C)c2ccn3ncc(F)c3n2)[C@H](CC)CN1c1cc(=O)n(C)c2cn(CC#N)nc12 (single isomer, unassigned) [Compound A161a]
f

For this molecule, is IC50 lower than 0.5 µM? CC[C@H]1CN(C(C)c2ccc(C3CC3)nc2F)[C@H](CC)CN1c1cc(=O)n(C)c2cn(CC#N)nc12 (single isomer, unassigned) [Compound A45b]
f

For this molecule, is IC50 lower than 0.5 µM? CC(c1ccc2c(c1F)OC(C)(C)O2)N1C[C@H](C)N(c2cc(=O)n(C)c3cn(CC#N)nc23)C[C@H]1C (stereo partly drawn)
t

For this molecule, is IC50 lower than 0.5 µM? CC[C@H]1CN(C(C)c2ccc(CNC)cc2)[C@H](CC)CN1c1cc(=O)n(C)c2cn(CC#N)nc12 (stereo partly drawn)
f

For this molecule, is IC50 lower than 0.5 µM? CC[C@H]1CN(C(C)c2cc(F)c(CN(C)C)c(F)c2)[C@H](CC)CN1c1cc(=O)n(C)c2cn(CC#N)nc12 (single isomer, unassigned) [Compound A25b]
f

For this molecule, is IC50 lower than 0.5 µM? CC[C@H]1CN(C(C)c2ccc3nc(C)cn3n2)[C@H](CC)CN1c1nc(=O)n(C)c2cn(CC#N)nc12 (single isomer, unassigned) [Compound A150a]
f
